These measurements were taken from the RNAGym collection of RNA variant scans (doi:10.1101/gad.245936.114).

B1: tRNA (parent)
chain: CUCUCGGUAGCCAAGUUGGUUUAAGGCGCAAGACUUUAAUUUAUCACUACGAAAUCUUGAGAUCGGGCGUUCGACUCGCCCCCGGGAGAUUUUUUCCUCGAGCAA

variants of: B1; assay: nonsense suppression (GFP-seq) (ratio to wild type); higher = more function; SUP4oc tRNA, yeast GFP reporter sort-seq
Variants at the floor of the assay were thinned out.
Would you mind labelling by nonsense suppression? At or over 0.07 is 1 (yes), under is 0 (no).

Determine whether measured nonsense suppression meets or exceeds 0.07 for G7A G59A U71G G73A G84A G85U 0 (no)

Answer whether nonsense suppression of C11U G84C A89C is greater than or equal to 0.07. 0 (no)

Assess whether reported nonsense suppression for C27U U35A U58A G65A G78C sits at 0.07 or higher. 0 (no)

Kindly determine if nonsense suppression recorded for U2A A23C is above or exactly 0.07. 0 (no)

Assess whether reported nonsense suppression for C82A A87U sits at 0.07 or higher. 0 (no)

Is reported nonsense suppression greater than or equal to 0.07 here: C29G G78A 0 (no)

Is nonsense suppression at least 0.07? Consider U2C A23G A62C G67A 0 (no)

Given the entry U16G C56A U58G A60C , answer whether its nonsense suppression meets or surpasses 0.07. 0 (no)

Evaluate U20C A30U : nonsense suppression at minimum 0.07? 0 (no)

Given the entry A54C C75U , answer whether its nonsense suppression meets or surpasses 0.07. 1 (yes)

Has A30G C82U a recorded nonsense suppression greater than or equal to 0.07? 0 (no)

Identify whether the reported nonsense suppression of the following variant is 0.07 or greater: G6U G7C A33U 0 (no)

Exam item: decide whether the reported nonsense suppression for C34A G65C G85C is at least 0.07. 0 (no)

Hi, just wondering whether A9U G28A C75U shows nonsense suppression of 0.07 or higher. 1 (yes)

Hi, just wondering whether U57A G78C shows nonsense suppression of 0.07 or higher. 0 (no)

Is the recorded value of nonsense suppression equal to or greater than 0.07 for this variant? G15A U21C C82A 0 (no)

Threshold query (nonsense suppression >= 0.07) on U16G U17A G19A C27A 0 (no)

Please tell me: is the variant U17G U22G at or over 0.07 in terms of nonsense suppression? 1 (yes)

Is it the case that A33G C75G has nonsense suppression reaching or exceeding 0.07? 1 (yes)

Please indicate if the recorded nonsense suppression for G6A C81U meets or exceeds 0.07. 0 (no)

Assess whether reported nonsense suppression for C27U U58A sits at 0.07 or higher. 0 (no)

Given the entry U4C C34A , answer whether its nonsense suppression meets or surpasses 0.07. 0 (no)

Does the reported nonsense suppression for G61A A62U fall at or above the 0.07 mark? 1 (yes)

Would you say C5G C12G U16C G32A shows nonsense suppression at minimum 0.07? 0 (no)

Hi team, for A13C U17A A31G , is the recorded nonsense suppression at or above 0.07? 1 (yes)

Given the entry U17G A54G U57C , answer whether its nonsense suppression meets or surpasses 0.07. 0 (no)

Check the entry U17A U21C G85A : does nonsense suppression equal or exceed 0.07? 1 (yes)

Exam item: decide whether the reported nonsense suppression for C3U U4C A9C is at least 0.07. 1 (yes)

I'd appreciate it if you could say whether C3G G65C C79U has nonsense suppression at least equal to 0.07. 0 (no)

# check: nonsense suppression of G28A U63A C68G U70A G85C is greater than or equal to 0.07 0 (no)
